target: Quinolone resistance protein NorA (Staphylococcus aureus) (UniProt P0A0J7); details: SA-1199B, at 50 µM
Description: Inhibition of norA-mediated ethidium bromide efflux in Staphylococcus aureus SA-1199B harboring grlA A116E mutant at 50 uM after 5 mins by fluorometric analysis

| compound | subjectOfTest | readoutUnits | inhibition |
| --- | --- | --- | --- |
| COc1ccc(CCN2CCC(Nc3nc4ccccc4n3Cc3ccc(F)cc3)CC2)cc1 [ASTEMIZOLE] | Quinolone resistance protein NorA (Staphylococcus aureus) (UniProt P0A0J7) | % | 80.6 |
| O=C1NCCN1CCN1CCC(c2cn(-c3ccc(F)cc3)c3ccc(Cl)cc23)CC1 [SERTINDOLE] | Quinolone resistance protein NorA (Staphylococcus aureus) (UniProt P0A0J7) | % | 81.8 |
| CN(C)C(=O)C(CCN1CCC(O)(c2ccc(Cl)cc2)CC1)(c1ccccc1)c1ccccc1 [LOPERAMIDE] | Quinolone resistance protein NorA (Staphylococcus aureus) (UniProt P0A0J7) | % | 77.7 |
